study.system: preformed immune complex of peroxidase-rabbit anti-peroxidase IgG (PAP complex) (rabbit; horseradish) (UniProt P00433)
Sequence (P00433 31-338, one chain of several): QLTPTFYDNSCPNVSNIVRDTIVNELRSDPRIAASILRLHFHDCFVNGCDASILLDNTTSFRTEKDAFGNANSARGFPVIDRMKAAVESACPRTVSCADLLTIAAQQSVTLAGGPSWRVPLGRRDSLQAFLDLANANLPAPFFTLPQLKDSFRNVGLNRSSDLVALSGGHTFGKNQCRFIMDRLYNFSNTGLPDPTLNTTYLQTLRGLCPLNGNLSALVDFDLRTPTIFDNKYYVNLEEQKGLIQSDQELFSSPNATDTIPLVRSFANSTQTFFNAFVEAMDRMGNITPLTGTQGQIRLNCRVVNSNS
procedure.details: reverse ELISA competition: PAP pre-incubated with peptide, then on FcγIII-coated plate (competitor: immobilized FcγIII)
No end group written: not given here.
readout.type: OD 405 nm (OD 405 nm)

binder="APPCARHLGELVWCT (not fully specified; cysteine pairing not given here) [… (SEQ ID NO:14)]" units_symbol="OD 405 nm" val=0.709
binder="APPCAFHLGELVWCT (not fully specified; cysteine pairing not given here) [… (SEQ ID NO:15)]" units_symbol="OD 405 nm" val=0.88
binder="APPDCAWHLGELVWCT [… (SEQ ID NO:16)]" units_symbol="OD 405 nm" val=0.67
binder="DCAFHLGELVWCT [… (SEQ ID NO:3)]" units_symbol="OD 405 nm" val=0.81
binder="APPCAWHLGELVWCT (not fully specified; cysteine pairing not given here) [… (SEQ ID NO:13)]" units_symbol="OD 405 nm" val=0.53

Taken from patent US20080200392A1.
